- Test system: Wolbachia pipientis
- ASSAY_NAME: Anti-Wolbachia Cell-Based Screen
- Type: functional
- Parameters: scale not given: in the data most compounds retested in dose-response had high values
- CONDITIONS: 5 µM
Out of some 48,000 compounds screened, about 13,000 (27%) showed an effect of 50% or more. Some of the results follow.
Below, each of the molecules is paired with its reported Percent Effect value.
Answer with a number only, understood to be in %.

Some entries whose results are on file:
CCc1ccc(CCC(=O)N2CCC(=O)Nc3cccnc32)cc1: -4.556
Cc1ccc(N2CCN(C(=O)COc3ccccc3)CC2)nn1: -10.88

input: Data request, read-out Percent Effect, for CN(Cc1cccnc1)c1nc(-c2ccccn2)nc2c1CCNCC2
output: -5.428

input: # lookup: Percent Effect of COc1ccc(CC(=O)N2CC[C@@H]3NC(=O)CC[C@@H]32)cc1
output: -10.22

input: Suppose we examine the molecule CC1(C)CNC(=O)CN(C(=O)Cc2ccccc2)C1 ; what Percent Effect value has been reported?
output: 98.91

input: Form field: reported Percent Effect of CN(Cc1ccon1)C1CCN(c2cccc(-c3cscn3)c2)CC1
output: -11.17

input: Dear colleague, I am looking for the recorded Percent Effect of the following molecule: CC1(C)CNC(=O)CN(C(=O)COc2ccccc2)C1
output: 99.32

input: What value of Percent Effect has been reported for the following molecule? Cc1ccnc2c1NC(=O)CN2C(=O)CCc1ccccc1
output: 5.988

input: State the recorded Percent Effect for this entry: CSCCc1nc(C(C)C)nn1-c1ccncc1C
output: -5.681

input: Look up Percent Effect for this molecule: CCN1CCN(S(=O)(=O)c2cn(C(C)C)cn2)c2ccccc21
output: -8.79

input: Field request: Percent Effect | item: O=C(c1ncc[nH]1)N1CCC(n2cc(-c3ccccn3)nn2)CC1
output: -4.702

input: Return reported Percent Effect; argument: CC(C)c1nccn1CCn1cnc2ccsc2c1=O
output: 2.985

----------
- System: Wolbachia pipientis
- ASSAY_NAME: Anti-Wolbachia Cell-Based Screen
- Type: functional
- Set-up: scale not given: in the data most compounds retested in dose-response had high values
- CONDITIONS: 5 µM
Among all 48,000 compounds or so, about 13,000 (27%) showed an effect of 50% or more. Some of the results follow.
ENDPOINT_LABEL: Percent Effect (%)
Record the value in %, omitting the unit from your answer.

Here's what some known entries look like.
COc1cc(C2CC(=O)NCc3nc4sccn4c32)cc(OC)c1O (stereo not given): -15.83
CCCS(=O)(=O)N1C[C@@H]2CN(Cc3cccs3)CCO[C@@H]2C1.O=C(O)C(F)(F)F: 8.558
CC(C)[C@H]1CN(Cc2ccccn2)C[C@@H]1NS(=O)(=O)C1CC1: -5.384
CN(C)C(=O)C1CN(Cc2ccccn2)CCN(S(C)(=O)=O)C1 (stereo not given): 88.48

Consider the additional compound presented here.
input: Please report the recorded Percent Effect for CS(=O)(=O)N1C[C@H]2CCCN(Cc3cccs3)[C@H]2C1.O=C(O)C(F)(F)F .
output: 3.048

----------
- Tested on: Wolbachia pipientis
- ASSAY_NAME: Anti-Wolbachia Cell-Based Screen
- Format: functional
- Set-up: scale not given: in the data most compounds retested in dose-response had high values
- CONDITIONS: 5 µM
About 13,000 (27%) of roughly 48,000 compounds showed an effect of 50% or more. The list shows a part of the results.
Percent Effect overview
# do not omit the unit; it follows the number

CC1=N[C@@]2(CC[C@@H]3CN(Cc4cccc(Cl)c4)C[C@@H]32)C(=O)N1CC1CC1.O=C(O)C(F)(F)F: 106.8%
CC1=N[C@@]2(CC[C@@H]3CN(CC4CC4)C[C@@H]32)C(=O)N1CC(C)C.O=C(O)C(F)(F)F: -11.12%
COCCN1C[C@H]2CC[C@@]3(N=C(C)N(CC4CC4)C3=O)[C@H]2C1.O=C(O)C(F)(F)F: -0.9614%
CN(C)[C@@H]1CCN(S(C)(=O)=O)[C@H]1Cc1ccccc1: 99.96%
CC(C)N(C)[C@@H]1CCN(S(C)(=O)=O)[C@H]1Cc1ccccc1: 103.5%

input: I am curious: what Percent Effect value has been reported for CC(=O)c1cccc(C(=O)N2C[C@@H](CN3CCCCCC3)[C@@H](CO)C2)c1 ?
output: -7.849%

input: Given the entry COc1ccc(Cl)cc1-n1c(COC(C)C)n[nH]c1=O , report its measured Percent Effect.
output: 9.918%

input: What value of Percent Effect has been reported for the following molecule? O=C(O)C(F)(F)F.O=C1NC(c2ccccc2)=N[C@@]12CC[C@@H]1CN(CC3CC3)C[C@@H]12
output: 1.711%

input: Query: Percent Effect; subject: CC1=N[C@@]2(CC[C@@H]3CN(Cc4ccccc4)C[C@@H]32)C(=O)N1CC1CC1.O=C(O)C(F)(F)F
output: 87%
